Values from patent US20130266566A1

Target: T1, mouse PAI-1 (mouse, UniProt P22777 24-401)
T1 sequence: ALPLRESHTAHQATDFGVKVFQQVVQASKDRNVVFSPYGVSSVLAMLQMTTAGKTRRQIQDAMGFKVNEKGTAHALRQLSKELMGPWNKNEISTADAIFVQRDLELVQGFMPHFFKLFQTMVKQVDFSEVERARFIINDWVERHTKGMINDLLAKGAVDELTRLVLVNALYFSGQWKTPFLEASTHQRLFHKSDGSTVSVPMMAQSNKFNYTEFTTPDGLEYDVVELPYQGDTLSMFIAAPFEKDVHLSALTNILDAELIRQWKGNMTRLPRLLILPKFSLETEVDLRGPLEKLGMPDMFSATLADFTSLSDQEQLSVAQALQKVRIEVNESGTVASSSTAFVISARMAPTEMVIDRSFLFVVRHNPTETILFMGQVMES
Test: cell-based or functional assay
Measured Chromogenic IC50 ratio mouse/human by item
Kindly answer with a numeric value in fold, unit omitted.

# Binder, Chromogenic IC50 ratio mouse/human, fold
records = [
    ("Antibody 25 scFv (scFv) QVQLQQSGAEVKKPGSSVKVSCKASGGTFSSYAISWVRQAPGQGLEWMGGIIPTFGTANYAQKFQGRVTITADESTSTAYMELSGLRSEDTAVYYCARERRQWLEGHFDYWGQGTPVTVSSDIQMTQSPSFLSASIGDRVTITCRASESIYHELAWYQQKPGKAPKLLIYKASSLASGAPSRFSGSGSGTAFTLTISSLQPDDFATYYCQQYSNYPLTFGGGTKLEIK", 13.1),
    ("Antibody 26 scFv (scFv) QVQLQQSGAEVKKPGTSVKVSCKASGGTFSSYAISWVRQAPGQGLEWMGGIIPIFGTANYAQKFQGRVTITADESTSTAYMELSSLRSEDTAVYYCAREKRQWLEGHFDYWGRGTPVTVSSDIQMTQSPSFLSASIGDRVTITCRASEGIYHTLAWYQQKPGKAPKLLIYRASSLASGAPSRFSGSGSGTDFTLTISSLQPDDFATYYCQQYSNYPLTFGGGTKLEIK", 52.9),
]

Attention now shifts to the item below.
## Task Given the binder Antibody 02 scFv (scFv) QVQLVQSGAEVKKPGSSVKVSCKASGGTFSSYAISWVRQAPGQGLEWMGGIIPTFGTANYAQKFQGRVTITADESTSTAYMELSSLRSEDTAVYYCAREKRQWLEGHFDYWGRGTLVTVSSDIQMTQSPSTLSASVGDRVTITCRASEGIYHSLAWYQQKPGKAPKLLIYKASSLASGVPSRFSGSGSGTEFTLTISSLQPDDFATYYCQQYSDYPLTFGGGTKVEIK , what is its reported Chromogenic IC50 ratio mouse/human?
## Result 929
